study.system: Angiopoietin-1 receptor (Homo sapiens);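 note: reported value is the mean TIE2 inhibition from the GSK PKIS dataset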
run.conditions: at 1 µM
inhibition class ranges: low = under 3%, medium = from 3% up to 7%, high = 7% and over

**Q:** Could you tell me which band COc1c(C(N)=O)cc(-c2ccc(Cl)cc2)cc1-c1ccc(S(N)(=O)=O)cc1 belongs to?
**A:** high

**Q:** Could you tell me which band COc1ccc(-c2nn3ncccc3c2-c2ccnc(Nc3ccc(F)c(F)c3)n2)cc1 belongs to?
**A:** high

**Q:** Could you tell me which band c1ccc(-c2n[nH]cc2-c2ccnc(-c3ccc(OCCn4ccnc4)cc3)c2)nc1 belongs to?
**A:** medium

**Q:** Could you tell me which band O=C(Nc1n[nH]c2nnc(-c3cccnc3)cc12)C1CC1 belongs to?
**A:** low

**Q:** Could you tell me which band O=C(O[C@H]1CN[C@H](C#Cc2cc3ncnc(Nc4ccc5c(ccn5Cc5cc(F)ccc5F)c4)c3s2)C1)N1CCOCC1 belongs to?
**A:** high

**Q:** Could you tell me which band CS(=O)(=O)Nc1ccc(-c2cc(-c3ccccc3)cc(C(N)=O)c2N)cc1 belongs to?
**A:** low

**Q:** Could you tell me which band COc1cc(N2CCN(C(C)C)CC2)ccc1Nc1nc(Nc2cccc(F)c2C(=O)O)c2cc[nH]c2n1 belongs to?
**A:** medium

----------
study.system: Interleukin-1 receptor-associated kinase 4 (Homo sapiens) (UniProt Q9NWZ3);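 note: reported figure is the mean inhibition of IRAK4 activity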
Sequence (Q9NWZ3 whole entry): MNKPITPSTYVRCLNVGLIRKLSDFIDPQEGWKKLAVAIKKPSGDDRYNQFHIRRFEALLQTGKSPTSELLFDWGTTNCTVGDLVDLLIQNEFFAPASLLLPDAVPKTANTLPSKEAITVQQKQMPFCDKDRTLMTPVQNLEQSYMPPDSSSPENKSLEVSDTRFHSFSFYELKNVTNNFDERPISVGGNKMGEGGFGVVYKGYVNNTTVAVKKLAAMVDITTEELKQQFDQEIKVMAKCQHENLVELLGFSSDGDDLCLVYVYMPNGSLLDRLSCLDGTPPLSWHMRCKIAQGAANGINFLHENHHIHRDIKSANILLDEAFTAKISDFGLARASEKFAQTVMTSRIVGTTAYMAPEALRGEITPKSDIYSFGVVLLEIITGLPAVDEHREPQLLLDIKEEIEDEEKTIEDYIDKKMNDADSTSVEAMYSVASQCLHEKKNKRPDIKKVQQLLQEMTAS
run.conditions: at 0.1 µM
measurement.label: inhibition (%)
// note: answer is a bare numeric in %

**Q:** Entry under review: O=C(O[C@H]1CN[C@H](C#Cc2cc3ncnc(Nc4ccc(OCc5cccc(F)c5)c(Cl)c4)c3s2)C1)N1CCOCC1 . Reported inhibition?
**A:** 1.13

**Q:** Entry under review: O=C(Nc1n[nH]c2nnc(-c3cccnc3)cc12)C1CC1 . Reported inhibition?
**A:** -0.42

**Q:** Entry under review: COc1cc(N2CCN(C(C)C)CC2)ccc1Nc1nc(Nc2cccc3ncccc23)c2cc[nH]c2n1 . Reported inhibition?
**A:** 5.39

**Q:** Entry under review: O=C1Nc2ccccc2/C1=C1\CCc2cc(O)ccc21 . Reported inhibition?
**A:** 0.67

**Q:** Entry under review: CNC(=O)c1ncccc1Nc1nc(Nc2cc3c(cc2OC)CCCN3C(=O)CN(C)C)nc2[nH]ccc12 . Reported inhibition?
**A:** -0.32

----------
study.system: Casein kinase I isoform alpha (Homo sapiens) (UniProt P48729);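 note: values are the mean percent inhibition of CK1a, averaged over measurements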
Sequence (P48729 2-337 limits assumed): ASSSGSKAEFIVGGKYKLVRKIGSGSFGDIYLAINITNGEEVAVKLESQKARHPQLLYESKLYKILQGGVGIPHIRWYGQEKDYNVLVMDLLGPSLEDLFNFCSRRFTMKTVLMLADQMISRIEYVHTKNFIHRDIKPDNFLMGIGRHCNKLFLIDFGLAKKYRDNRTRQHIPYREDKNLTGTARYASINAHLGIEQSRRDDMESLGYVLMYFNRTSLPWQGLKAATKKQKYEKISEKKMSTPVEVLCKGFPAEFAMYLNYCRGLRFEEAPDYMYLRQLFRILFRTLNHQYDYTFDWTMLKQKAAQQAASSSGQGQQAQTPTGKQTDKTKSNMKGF
run.conditions: at 0.1 µM
So I've got a bunch of molecules here, and I need their inhibition values.
// note: answer is a bare numeric in %

**Q:** Entry under review: O=C(O[C@H]1CN[C@H](C#Cc2cc3ncnc(Nc4ccc(OCc5cccc(F)c5)c(Cl)c4)c3s2)C1)N1CCOCC1 . Reported inhibition?
**A:** 2.97

**Q:** Entry under review: CN(c1ccc(NC(=O)NCCN2CCOCC2)cc1)c1ccnc(Nc2ccc(CS(C)(=O)=O)cc2)n1 . Reported inhibition?
**A:** 1.71

**Q:** Entry under review: COc1cc2c(cc1Nc1nc(Nc3cccc(F)c3C(N)=O)c3cc[nH]c3n1)N(C(=O)CN1CCN(C(C)C)CC1)CC2 . Reported inhibition?
**A:** 1.84

----------
study.system: Tyrosine-protein kinase Lyn (Homo sapiens)
run.conditions: at 0.1 µM
Description: GSK_PKIS: LYN A (splice variant) mean inhibition at 0.1 uM [Nanosyn]
measurement.label: inhibition (%)
// note: answer is a bare numeric in %

**Q:** Write down the reported inhibition of COC(=O)Nc1nc2cc(Oc3ccc(NC(=O)Nc4ccccc4)cc3)ccc2[nH]1 , test system: Tyrosine-protein kinase Lyn (Homo sapiens).
**A:** 3.96

**Q:** Write down the reported inhibition of NS(=O)(=O)c1ccc(N/N=C2\C(=O)Nc3ccc(C(=O)NCc4ccncc4)cc32)cc1 , test system: Tyrosine-protein kinase Lyn (Homo sapiens).
**A:** 5.87

**Q:** Write down the reported inhibition of CC1=C(C(=O)Nc2ccc3[nH]ncc3c2)C(c2ccc(F)cc2)N=C(c2ccc(C(F)(F)F)nc2)N1 (stereo not given) , test system: Tyrosine-protein kinase Lyn (Homo sapiens).
**A:** 2.25

**Q:** Write down the reported inhibition of CCS(=O)(=O)c1ccc(OC)c(Nc2ncc(-c3cccc(C(C)=O)c3)o2)c1 , test system: Tyrosine-protein kinase Lyn (Homo sapiens).
**A:** 11.3

**Q:** Write down the reported inhibition of COc1cccc(Nc2nccc(-c3cnn4ncccc34)n2)c1 , test system: Tyrosine-protein kinase Lyn (Homo sapiens).
**A:** 5.3

**Q:** Write down the reported inhibition of NS(=O)(=O)c1ccc(N/N=C2\C(=O)Nc3cccc(CCc4ccncc4)c32)cc1 , test system: Tyrosine-protein kinase Lyn (Homo sapiens).
**A:** 2.64

**Q:** Write down the reported inhibition of Cc1cc(O)cc(C)c1/C=C/c1cncc(C(=O)OC(C)(C)C)c1 , test system: Tyrosine-protein kinase Lyn (Homo sapiens).
**A:** 13.7

**Q:** Write down the reported inhibition of CNC(=O)c1sc(-n2cnc3cc(OC)c(OC)cc32)cc1OCc1ccccc1C(F)(F)F , test system: Tyrosine-protein kinase Lyn (Homo sapiens).
**A:** 3.05

**Q:** Write down the reported inhibition of CC(C)c1ccc(-c2cc(-c3c[nH]nc3-c3ccccn3)ccn2)cc1 , test system: Tyrosine-protein kinase Lyn (Homo sapiens).
**A:** 1.49

**Q:** Write down the reported inhibition of Cc1ccc(-c2cc3c(NC(=O)C4CC4)ncnc3o2)cc1 , test system: Tyrosine-protein kinase Lyn (Homo sapiens).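 Note: mean inhibition of the LYN A splice variant of the kinase.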
**A:** 5.46
